Listing of recorded refractive index by entry.
test: refractive index (Na D-line) (dimensionless); settings: 303.15 K; 101.33 kPa; Liquid
Would you mind answering with just the numeric figure?

Recorded refractive index, per entry:
# MOLECULE, VALUE_REPORTED
measured = [
    ("CCCCCCCCO", 1.42562),
    ("CCCCCCO", 1.41423),
    ("BrC(Br)C(Br)Br", 1.62926),
    ("CCCCCCCCCCO", 1.43302),
    ("CCCCCCCO", 1.42002),
]

Here is another compound to look at.
## Input Given CCCCCO , state its recorded refractive index.
## Output 1.40592

These data points were gathered from the NIST ThermoML archive (doi:10.1016/j.jct.2005.11.012).
